Tested on: HEK293
protocolNotes: Viability assay (CellTiter-Glo), HEK293
Format: cell-based, human
testSettings: 120 μM, CellTiter-Glo

[
  {
    "compound": "CCNC(=O)c1ncn2c1[C@@H](C)N=C(c1ccccc1F)c1cc(C3CC3)ccc1-2 [GL-III-68]",
    "Cell viability (%) HEK293 120 μM": "56 ± 11%"
  },
  {
    "compound": "C#Cc1ccc2c(c1)C(c1ccccc1F)=NC(C)c1c(C(=S)NCC)ncn1-2 (stereo not drawn) [GL-III-86]",
    "Cell viability (%) HEK293 120 μM": "66 ± 10%"
  },
  {
    "compound": "CC1N=C(c2ccccc2F)c2cc(Br)ccc2-n2cnc(-c3cnco3)c21 (racemic) [GL-III-76A]",
    "Cell viability (%) HEK293 120 μM": "0 ± 3%"
  },
  {
    "compound": "C#Cc1ccc2c(c1)C(c1ccccc1F)=N[C@H](C)c1c(-c3nc(C)no3)ncn1-2 [MP-IV-004]",
    "Cell viability (%) HEK293 120 μM": "40 ± 8%"
  },
  {
    "compound": "CCc1noc(-c2ncn3c2[C@@H](C)N=C(c2ccccc2F)c2cc(C4CC4)ccc2-3)n1 [GL-IV-03]",
    "Cell viability (%) HEK293 120 μM": "47 ± 5%"
  },
  {
    "compound": "C#Cc1ccc2c(c1)C(c1ccccc1F)=N[C@@H](C)C(=O)N2 [GL-I-64]",
    "Cell viability (%) HEK293 120 μM": "77 ± 13%"
  },
  {
    "compound": "C#Cc1ccc2c(c1)C(c1ccccc1F)=NC(C)C(=O)N2C (stereo not drawn) [GL-III-25]",
    "Cell viability (%) HEK293 120 μM": "93 ± 4%"
  },
  {
    "compound": "CC(C)c1noc(-c2ncn3c2[C@@H](C)N=C(c2ccccc2F)c2cc(C4CC4)ccc2-3)n1 [GL-IV-04]",
    "Cell viability (%) HEK293 120 μM": "71 ± 6%"
  },
  {
    "compound": "O=C(O)c1ncn2c1CN=C(c1ccccc1)c1cc(Br)ccc1-2 [GL-I-50]",
    "Cell viability (%) HEK293 120 μM": "97 ± 12%"
  }
]

----------
Test system: HEK293
protocolNotes: Viability assay (CellTiter-Glo), HEK293
Type: cell-based, human
testSettings: 120 μM, CellTiter-Glo
Could you mark each record Yes if its Cell viability (%) HEK293 120 μM falls strictly under 80%, and No if it equals or exceeds it?

[
  {
    "compound": "CCOC(=O)c1ncn2c1[C@@H](C)N=C(c1ccccn1)c1cc(C#C[Si](C)(C)C)ccc1-2 [GL-II-18]",
    "assignedCategory": "Yes"
  },
  {
    "compound": "CCOC(=O)c1ncn2c1[C@@H](C)N=C(c1ccccn1)c1cc(Br)ccc1-2 [GL-II-06]",
    "assignedCategory": "No"
  },
  {
    "compound": "C#Cc1ccc2c(c1)C(c1ccccn1)=NCC(=O)N2 [GL-III-58]",
    "assignedCategory": "No"
  },
  {
    "compound": "C#Cc1ccc2c(c1)C(c1ccccn1)=N[C@H](C)C(=O)N2 [GL-III-27]",
    "assignedCategory": "No"
  },
  {
    "compound": "C#Cc1ccc2c(c1)C(c1ccccc1F)=NC(C)c1c(C(=S)N(C)C)ncn1-2 (centres unmarked) [GL-III-85]",
    "assignedCategory": "Yes"
  },
  {
    "compound": "C#Cc1ccc2c(c1)C(c1ccccn1)=NC(C)C(=O)N2C (centres unmarked) [GL-II-61]",
    "assignedCategory": "No"
  },
  {
    "compound": "C[C@H]1N=C(c2ccccc2F)c2cc(Br)ccc2-n2cnc(C(=O)N(C)C)c21 [GL-III-69]",
    "assignedCategory": "Yes"
  },
  {
    "compound": "CC(C)c1noc(-c2ncn3c2[C@@H](C)N=C(c2ccccc2F)c2cc(Br)ccc2-3)n1 [GL-IV-01]",
    "assignedCategory": "Yes"
  },
  {
    "compound": "C#Cc1ccc2c(c1)C(c1ccccc1F)=NCc1c(C(=O)OCCCO)ncn1-2 [GL-II-80]",
    "assignedCategory": "Yes"
  },
  {
    "compound": "C#Cc1ccc2c(c1)C(c1ccccc1F)=NC(C)c1c(C(=O)[O-])ncn1-2.[Na+] (centres unmarked) [GL-IV-17]",
    "assignedCategory": "Yes"
  },
  {
    "compound": "Cc1noc(-c2ncn3c2[C@@H](C)N=C(c2ccccn2)c2cc(C4CC4)ccc2-3)n1 [GL-III-64]",
    "assignedCategory": "Yes"
  },
  {
    "compound": "CCNC(=O)c1ncn2c1[C@@H](C)N=C(c1ccccc1F)c1cc(Br)ccc1-2 [GL-III-67]",
    "assignedCategory": "Yes"
  },
  {
    "compound": "C#Cc1ccc2c(c1)C(c1ccccc1F)=N[C@@H](C)c1c(-c3cnco3)ncn1-2 [GL-III-78]",
    "assignedCategory": "Yes"
  },
  {
    "compound": "C#Cc1ccc2c(c1)C(c1ccccn1)=NCc1c(C(=O)O)ncn1-2 [GL-III-13]",
    "assignedCategory": "Yes"
  },
  {
    "compound": "Cc1noc(-c2ncn3c2[C@@H](C)N=C(c2ccccc2F)c2cc(Br)ccc2-3)n1 [GL-III-60]",
    "assignedCategory": "Yes"
  },
  {
    "compound": "Cc1noc(-c2ncn3c2[C@@H](C)N=C(c2ccccc2F)c2cc(C4CC4)ccc2-3)n1 [GL-III-63]",
    "assignedCategory": "Yes"
  },
  {
    "compound": "CC1N=C(c2ccccn2)c2cc(Br)ccc2NC1=O (centres unmarked) [GL-II-05]",
    "assignedCategory": "No"
  }
]

----------
assayedTarget: DOR (δ opioid receptor) (Homo sapiens)
Construct: expressed in transfected cells; host or cells: HEK293
Sequence (P41143 whole entry): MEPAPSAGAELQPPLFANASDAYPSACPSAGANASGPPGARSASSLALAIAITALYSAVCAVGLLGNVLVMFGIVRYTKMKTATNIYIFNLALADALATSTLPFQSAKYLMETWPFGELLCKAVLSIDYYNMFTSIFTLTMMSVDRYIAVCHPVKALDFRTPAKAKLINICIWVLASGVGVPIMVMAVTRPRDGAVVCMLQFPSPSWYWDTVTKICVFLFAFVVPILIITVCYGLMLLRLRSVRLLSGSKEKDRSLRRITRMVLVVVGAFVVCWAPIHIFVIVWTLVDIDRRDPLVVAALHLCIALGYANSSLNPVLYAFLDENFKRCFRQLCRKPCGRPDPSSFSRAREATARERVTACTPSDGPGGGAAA
protocolNotes: DOR radioligand binding ([3H]-DADLE, HEK293 cell homogenates)
testSettings: Percent inhibition at 10,000 nM; [3H]-DADLE
readoutKind: inhibition at 10 µM (%)

[
  {
    "compound": "C#Cc1ccc2c(c1)C(c1ccccc1F)=N[C@@H](C)c1c(C(=O)SCC)ncn1-2",
    "readoutKind": "inhibition at 10 µM",
    "experimentalResult": 4
  },
  {
    "compound": "C#Cc1ccc2c(c1)C(c1ccccc1F)=N[C@H](C)c1c(C(=O)NCC)ncn1-2",
    "readoutKind": "inhibition at 10 µM",
    "experimentalResult": 0
  },
  {
    "compound": "CCOC(=O)c1ncn2c1[C@H](C)N=C(c1ccccc1F)c1cc(Br)ccc1-2 [SH-I-048B]",
    "readoutKind": "inhibition at 10 µM",
    "experimentalResult": 0
  },
  {
    "compound": "C#Cc1ccc2c(c1)C(c1ccccc1F)=N[C@@H](C)c1c(C(=O)NC)ncn1-2",
    "readoutKind": "inhibition at 10 µM",
    "experimentalResult": 16
  },
  {
    "compound": "CCNC(=O)c1ncn2c1[C@@H](C)N=C(c1ccccc1F)c1cc(C3CC3)ccc1-2",
    "readoutKind": "inhibition at 10 µM",
    "experimentalResult": 10
  },
  {
    "compound": "C#Cc1ccc2c(c1)C(c1ccccn1)=NCc1c(-c3nc(CC)no3)ncn1-2",
    "readoutKind": "inhibition at 10 µM",
    "experimentalResult": 0
  },
  {
    "compound": "C#Cc1ccc2c(c1)C(c1ccccn1)=NCc1c(C(=O)OC)ncn1-2",
    "readoutKind": "inhibition at 10 µM",
    "experimentalResult": 24
  },
  {
    "compound": "C#Cc1ccc2c(c1)C(c1ccccc1F)=N[C@@H](C)c1c(C(=O)N(C)C)ncn1-2",
    "readoutKind": "inhibition at 10 µM",
    "experimentalResult": 11
  },
  {
    "compound": "C#Cc1ccc2c(c1)C(c1ccccn1)=NCc1c(C(=O)OCC)ncn1-2",
    "readoutKind": "inhibition at 10 µM",
    "experimentalResult": 49
  },
  {
    "compound": "C#Cc1ccc2c(c1)C(c1ccccc1F)=N[C@@H](C)c1c(C(=O)O)ncn1-2",
    "readoutKind": "inhibition at 10 µM",
    "experimentalResult": 18
  }
]

----------
Measured Ki values are reported for all entries that follow.
assayedTarget: BZR (benzodiazepine site of GABAAR)
protocolNotes: GABAAR/BZR binding, rat brain homogenate with 3H-flunitrazepam
testSettings: rat brain homogenate, 3H-flunitrazepam

[
  {
    "compound": "C#Cc1ccc2c(c1)C(c1ccccc1F)=N[C@H](C)c1c(-c3nc(C)no3)ncn1-2",
    "resultUnits": "nM",
    "Ki": 1080
  },
  {
    "compound": "C#Cc1ccc2c(c1)C(c1ccccc1F)=N[C@H](C)c1c(C(=O)NC(C)C)ncn1-2",
    "resultUnits": "nM",
    "Ki": 271
  },
  {
    "compound": "C#Cc1ccc2c(c1)C(c1ccccc1F)=NC(C)c1c(C(=O)OC(C)(C)C)ncn1-2 (stereo not shown)",
    "resultUnits": "nM",
    "Ki": 177
  },
  {
    "compound": "C#Cc1ccc2c(c1)C(c1ccccc1F)=NCc1c(-c3cnco3)ncn1-2 [KRM-II-18B]",
    "resultUnits": "nM",
    "Ki": 38
  },
  {
    "compound": "CCOC(=O)c1ncn2c1[C@H](C)N=C(c1ccccc1F)c1cc(C3CC3)ccc1-2",
    "resultUnits": "nM",
    "Ki": 352
  },
  {
    "compound": "C#Cc1ccc2c(c1)C(c1ccccc1)=NCc1c(-c3cnco3)ncn1-2",
    "resultUnits": "nM",
    "Ki": 96
  },
  {
    "compound": "C#Cc1ccc2c(c1)C(c1ccccn1)=NCc1c(-c3nc(C)no3)ncn1-2",
    "resultUnits": "nM",
    "Ki": 357
  },
  {
    "compound": "C#Cc1ccc2c(c1)C(c1ccccn1)=NCc1c(-c3nc(CC)no3)ncn1-2",
    "resultUnits": "nM",
    "Ki": 303
  },
  {
    "compound": "C[C@H]1N=C(c2ccccc2F)c2cc(Br)ccc2-n2cnc(-c3cnco3)c21",
    "resultUnits": "nM",
    "Ki": 319
  },
  {
    "compound": "C[C@H]1N=C(c2ccccc2F)c2cc(Br)ccc2-n2cnc(C(=O)N(C)C)c21",
    "resultUnits": "nM",
    "Ki": 446
  },
  {
    "compound": "C[C@H]1N=C(c2ccccc2F)c2cc(Br)ccc2-n2cnc(C(=O)O)c21",
    "resultUnits": "nM",
    "Ki": 86
  },
  {
    "compound": "C[C@H]1N=C(c2ccccc2F)c2cc(C3CC3)ccc2-n2cnc(C(=O)N(C)C)c21",
    "resultUnits": "nM",
    "Ki": 3400
  },
  {
    "compound": "C#Cc1ccc2c(c1)C(c1ccccc1F)=N[C@@H](C)c1c(C(=O)OC)ncn1-2",
    "resultUnits": "nM",
    "Ki": 219
  },
  {
    "compound": "C#Cc1ccc2c(c1)C(c1ccccn1)=N[C@H](C)c1c(C(=O)OC)ncn1-2",
    "resultUnits": "nM",
    "Ki": 1430
  },
  {
    "compound": "C#Cc1ccc2c(c1)C(c1ccccc1F)=NCc1c(-c3ocnc3C)ncn1-2",
    "resultUnits": "nM",
    "Ki": 45
  },
  {
    "compound": "Cc1ncoc1-c1ncn2c1CN=C(c1ccccc1F)c1cc(Br)ccc1-2",
    "resultUnits": "nM",
    "Ki": 20
  }
]
